Data origin: PubChem BioAssay (NCI)

Test system: UACC-62 melanoma
assay.procedure: NCI tumour cell line growth inhibition, 48 h; in the data active = GI50 below about 0.43 µM; inactive = the rest
Answer with one of the outcomes given here: t (active), f (inactive)

[in] Identify the outcome logged in this assay for the molecule shown: `C#CCOc1cccc(Nc2ncnc3c(NC(=O)C=C)cccc23)c1`
[out] f

[in] Hi, do you know how `O=C(O)c1cccc(COc2ccc([N+](=O)[O-])cc2Cl)c1` came out in this test?
[out] f

[in] Please indicate how the test categorized `CCc1ccc2c(c1)C(=O)c1c-2n(CCCN=[N+]=[N-])c(=O)c2cc([N+](=O)[O-])ccc12` .
[out] f

[in] Fill in: this test's call for `COc1cc2c(/C=N\N=C(N)N)c[nH]c2cc1C` is ___
[out] f

[in] So what was the verdict on `Cc1cn(-c2cc(C(=O)Nc3cccc(-n4ccc5c(NC(=O)c6ccccc6)nccc54)c3)cc(C(F)(F)F)c2)cn1` in this test?
[out] t

[in] For this molecule, state the assay outcome: `O=C1c2ccccc2-c2c1c1ccccc1c(=O)n2CCN1CCNCC1`
[out] f

[in] Record lookup: outcome of this test for `CC(C)[C@H](O)C(=O)N[C@@H](C)C(=O)N[C@@H]1C(=O)N(C)CCc2ccccc21` ?
[out] f

[in] Can you look up the reported call for `COc1cc(/C=C\c2cc(OC)c(OC)c(OC)c2)cc(N/C=C\C(=O)c2c[nH]c3ccccc23)c1OC` for me?
[out] f

[in] Which outcome did this test record for the molecule `Nc1cc2c(cc1Br)[nH]c(=O)c1ccccc12` ?
[out] f

[in] Short answer needed: outcome of this test for `COc1ccc(/C(C)=C(\c2ccc(OCCN3CCCCCC3)cc2)c2ccc(OC(=O)C3CCCCC3)cc2)cc1` ?
[out] f

[in] Record request — test call for `c1coc(-c2c3ccc(=[N+]4CCCCC4)cc-3oc3cc(N4CCCCC4)ccc23)c1`
[out] t

---

Tested on: OVCAR-5 ovarian
assay.procedure: NCI tumour cell line growth inhibition, 48 h; in the data active = GI50 below about 0.43 µM; inactive = the rest
Answer with one of the outcomes given here: y (active), n (inactive)

[in] Can you look up the reported call for `CCN(CC)CCCCCCNc1cccc2cc(Br)cnc12` for me?
[out] n

[in] Outcome? Nc1ccccc1O.O.O=C(O)C1[O][Sb][O]C1C(=O)O (stereo not given)
[out] n

[in] Look up the recorded call for `Cc1cn(-c2cc(C(=O)Nc3cccc(-n4ccc5c(NC(=O)c6ccccc6)nccc54)c3)cc(C(F)(F)F)c2)cn1` in this test.
[out] n

[in] Record request — test call for `Cc1cc(N/N=C/c2ccccn2)nc2ccccc12`
[out] n

[in] Dear all, I need the recorded test outcome for `ClCCN(CCCl)c1ccc(CNc2ccccc2)cc1` , thank you.
[out] n

[in] Per the assay record, what outcome was assigned to `Nc1cc(Br)c(-c2nnc(CCC(=O)c3nc4ccccc4[nH]3)o2)c(Br)c1` ?
[out] n

[in] Returns: the outcome recorded for `CCCC/C(=C\C1=C(C)C(=O)C(OC)=C(OC)C1=O)C(=O)O` in this assay.
[out] n

[in] Query: recorded result category for `COc1cc2cc(Oc3ccc(NC(=O)c4cc(C(F)(F)F)cc(C(F)(F)F)c4)cc3)c(C)nc2cc1OC` in this test
[out] n

[in] Please state the recorded outcome for this compound: `CCCc1cc(=O)n2c(C(=O)Nc3ccc(Cl)cc3C)c(C(=O)Nc3ccc(F)cc3)sc2n1`
[out] n

[in] Each compound tested received a call. Report the one for `Cc1ccc(OCCOCCOCCOCCOc2ccc(C)n(O)c2=S)c(=S)n1O` .
[out] y
